# targetOrTestSystem: T1, TBD-17 (HC S104A)
# T1 construct: anti-TROP2 Fab, CDR3 HC alanine mutant
# T1 sequence (VH, as listed by the source, chain 1 of 2): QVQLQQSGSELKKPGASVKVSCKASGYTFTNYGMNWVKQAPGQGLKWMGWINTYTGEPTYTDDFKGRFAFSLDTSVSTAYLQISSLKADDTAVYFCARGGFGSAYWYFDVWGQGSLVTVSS
# T1 sequence (VL, as listed by the source, chain 2 of 2): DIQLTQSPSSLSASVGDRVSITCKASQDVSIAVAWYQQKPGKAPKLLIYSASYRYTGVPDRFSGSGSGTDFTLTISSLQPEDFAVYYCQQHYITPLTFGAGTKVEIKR
# protocolSummary: competition ELISA, Fab on captured TROP2
Field: IC50. Provide a value for each of the binders that follow.
One number for each entry, in µM.

Okay, here is my list. What is IC50 for each of these?
1. VDFCYKYNWPICSR (mask peptide for the TROP2 Fab) [Peptide-55]
2. VDFCGLYHWPICYQ (mask peptide for the TROP2 Fab) [Peptide-8]

Response:
[7.21, 1.25]
